# system: T1, Mcl-1, Q07820
# T1 chain: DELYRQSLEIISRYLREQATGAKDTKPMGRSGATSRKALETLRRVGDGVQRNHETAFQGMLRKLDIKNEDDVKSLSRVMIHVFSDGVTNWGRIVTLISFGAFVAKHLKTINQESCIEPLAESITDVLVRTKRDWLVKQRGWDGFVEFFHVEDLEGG
# assayComment: peptide SPOT array, c-Myc-tagged receptor at 1 uM or 100 nM, anti-c-Myc-Cy3
Label t when SPOT signal as a fraction of Bim BH3's signal on the same receptor and array is at or above 0.05; anything below gets f.

[
  {
    "binder": "ADVHGIWSRLFCDFGDEFEVLDTTGE [UBA6]",
    "discreteLabel": "f"
  },
  {
    "binder": "VPAGVSLARNLKRVAEVWMDEYAEYI [GALNT10]",
    "discreteLabel": "f"
  },
  {
    "binder": "RCELQICGLADADAGEYLCVCGQERT [OBSCN]",
    "discreteLabel": "f"
  },
  {
    "binder": "DSLAKFAGRKLKDCLEDLLVEISEVL [PCM1]",
    "discreteLabel": "f"
  },
  {
    "binder": "GVMTQEVGQLLQDMGDDVYQQYRSLT [HUWE1]",
    "discreteLabel": "t"
  },
  {
    "binder": "EPTMKTLSDDLDEAAKEFQEKHKKEV [NAT10]",
    "discreteLabel": "f"
  },
  {
    "binder": "AELRLFLAQRLRWLLDSCPASRATCV [NBEAL2]",
    "discreteLabel": "t"
  },
  {
    "binder": "TETKATFGVHLKIVGDWTERFRDLLL",
    "discreteLabel": "t"
  },
  {
    "binder": "VDFYQPTCIVLQCGLDSLGCDRLGCF [HDAC3]",
    "discreteLabel": "f"
  },
  {
    "binder": "TRRSMVFARHDREVGDEFRSRHLNST [POFUT2]",
    "discreteLabel": "t"
  },
  {
    "binder": "CILNSFYGYVDRKGARWYSMEMAGIV [POLE]",
    "discreteLabel": "t"
  },
  {
    "binder": "LALLAQPSHLMRQVARSVFGHICSHL [MYBBP1A]",
    "discreteLabel": "t"
  },
  {
    "binder": "ALTVKEMAQMLQSFGTELAETELPDD [MCF2]",
    "discreteLabel": "f"
  },
  {
    "binder": "TIHFNQRGTRLASSGDDLRVIVWDWV [DCAF8L1]",
    "discreteLabel": "f"
  },
  {
    "binder": "VLLLSSSVNSLRKAAHEALQDFQKYK [DNAH8]",
    "discreteLabel": "t"
  },
  {
    "binder": "HHSSQEMSSEDREYADSFGKCPGGRN [PCYT2]",
    "discreteLabel": "f"
  },
  {
    "binder": "MEMYQPSAVVDQCGADSLSGDRLGCF [HDAC2]",
    "discreteLabel": "f"
  },
  {
    "binder": "NKRHRPIGIGVQGLADAFILMRYPFE [RRM1]",
    "discreteLabel": "f"
  },
  {
    "binder": "EVKQSMSSQSLDKAAEDMPEAEQDLE [APBA1]",
    "discreteLabel": "f"
  },
  {
    "binder": "KLPVVGIGKHLCGMLTDLALRCLVET [CCDC76]",
    "discreteLabel": "f"
  },
  {
    "binder": "FERVEQMCIQIKEVGDRVNYIKRSLQ [TRPM7]",
    "discreteLabel": "t"
  },
  {
    "binder": "DVGTGAGLLEDKKIGDEYFTFITDCK [CCT3]",
    "discreteLabel": "f"
  },
  {
    "binder": "WLKGDILGEKLVNLLDCLCNEDLESR [RNF160]",
    "discreteLabel": "t"
  },
  {
    "binder": "EQWAREIGAQLRRMLDDLNAQYERRR [BBC3]",
    "discreteLabel": "t"
  }
]
